Target: Rap guanine nucleotide exchange factor 3 (Homo sapiens) (UniProt O95398)
Sequence (O95398 whole entry, looked up): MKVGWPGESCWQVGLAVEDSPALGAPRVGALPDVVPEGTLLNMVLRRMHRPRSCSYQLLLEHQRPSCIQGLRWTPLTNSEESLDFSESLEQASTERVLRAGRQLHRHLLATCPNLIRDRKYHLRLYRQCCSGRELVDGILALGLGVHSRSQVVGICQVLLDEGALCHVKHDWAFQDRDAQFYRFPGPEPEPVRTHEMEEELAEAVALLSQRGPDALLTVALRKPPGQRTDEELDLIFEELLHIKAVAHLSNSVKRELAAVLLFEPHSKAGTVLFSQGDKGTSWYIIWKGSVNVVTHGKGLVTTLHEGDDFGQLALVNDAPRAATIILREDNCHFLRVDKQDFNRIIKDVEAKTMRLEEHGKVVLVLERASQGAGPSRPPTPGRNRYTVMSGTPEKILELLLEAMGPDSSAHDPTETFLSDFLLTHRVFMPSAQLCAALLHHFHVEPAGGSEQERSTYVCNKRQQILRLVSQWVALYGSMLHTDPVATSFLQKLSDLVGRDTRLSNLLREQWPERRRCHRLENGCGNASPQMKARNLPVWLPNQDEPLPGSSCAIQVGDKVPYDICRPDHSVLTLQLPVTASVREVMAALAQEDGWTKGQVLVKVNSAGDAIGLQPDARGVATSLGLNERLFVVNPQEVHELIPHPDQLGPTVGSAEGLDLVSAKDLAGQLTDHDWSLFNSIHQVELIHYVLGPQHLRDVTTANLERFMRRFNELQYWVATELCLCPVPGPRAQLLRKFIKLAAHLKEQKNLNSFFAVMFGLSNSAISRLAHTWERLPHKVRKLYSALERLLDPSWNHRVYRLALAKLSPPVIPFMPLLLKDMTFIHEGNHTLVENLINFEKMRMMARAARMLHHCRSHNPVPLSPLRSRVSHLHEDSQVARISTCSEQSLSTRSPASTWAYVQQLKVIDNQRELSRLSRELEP
Assay: Counterscreen qHTS for antagonist of cAMP-regulated guanine nucleotide exchange factor 3 (EPAC1) (AID 1645888);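 note: fluorescence loss as bound BODIPY-GDP is released from Rap1B; % of control where 0% means no effect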
Conditions: Rap1B-BODIPY-GDP nucleotide exchange, fluorescence; series mostly up to 154 µM
Source text: Assay Provider (PI): Xiaodong Cheng Ph.D. The University of Texas Medical Branch, […], TX MLPCN Grant: NS066510 In multi-cellular eukaryotic organisms, the effects of cAMP are transduced by two ubiquitously-expressed intracellular cAMP receptors, the classic protein kinase A/cAMP-dependent protein kinase (PKA/cAPK) and the more recently discovered exchange protein directly activated by cAMP/cAMP-regulated guanine nucleotide exchange factor (EPAC/cAMP-GEF). […]
Records with an inconclusive call do not appear. Active and inactive are the calls of the source. Calls come from the whole dose curve; as a rule, active = well fitted inhibition curve with a large enough effect; inconclusive = small, poorly fitted or top-dose-only effect; inactive = no such curve, though single readings can be large or run the other way.
property: activity change, negative = inhibition

- Brc1ccc(-c2csc(-c3c[nH]c4ccccc34)n2)cc1: 3.69% [at 30.8 µM] (inactive)
- CN(C)C(=O)CSc1nc(-c2ccccc2)c(-c2ccccc2)o1: 3.97% [at 30.8 µM] (inactive)
- COc1ccc(OC)c(/C=C2\SC(=S)N(NS(=O)(=O)c3ccccc3)C2=O)c1: inactive
- Cc1ccc2c(c1)c1c(c(=O)n(-c3cccc(Cl)c3)c(=O)n1C)n2C: inactive
- CC(Sc1nncn1C)C(=O)Nc1nnc(C(C)C)s1 (stereo unspecified): inactive
- c1ccc(-n2nnnc2-n2ccnc2)cc1: inactive

###

Target: Rap guanine nucleotide exchange factor 3 (Homo sapiens)
Test: Confirmatory qHTS for antagonist of cAMP-regulated guanine nucleotide exchange factor 3 (EPAC1) (AID 1645880); note: nearly all actives have a fitted effect of over 55% in size
Conditions: EPAC1 Rap1B-BODIPY-GDP exchange, fluorescence; series mostly up to 115 µM
Description: Assay Provider (PI): Xiaodong Cheng Ph.D. The University of Texas Medical Branch, […], TX MLPCN Grant: NS066510 In multi-cellular eukaryotic organisms, the effects of cAMP are transduced by two ubiquitously-expressed intracellular cAMP receptors, the classic protein kinase A/cAMP-dependent protein kinase (PKA/cAPK) and the more recently discovered exchange protein directly activated by cAMP/cAMP-regulated guanine nucleotide exchange factor (EPAC/cAMP-GEF). […]
Inconclusive results are not listed. The source made the active and inactive calls. Calls come from the whole dose curve; as a rule, active = well fitted inhibition curve with a large enough effect; inconclusive = small, poorly fitted or top-dose-only effect; inactive = no such curve, though single readings can be large or run the other way.
Classes used: yes = active, no = inactive

* CC(=O)C1=C(C)OC2(O)c3ccccc3C(=O)C12O (stereo unspecified) | no
* CCN(CC)c1ccc(Nc2nc(-c3cccnc3)cs2)cc1 | no
* O=C(Nc1cccc(Cl)c1)C1CCCN(C2=NS(=O)(=O)c3ccccc32)C1 (stereo unspecified) | no
* Cc1ccc2nc(-c3ccccc3)c(Cc3ccccc3C(F)(F)F)n2c1 | no
* Cc1ccc2c(c1)c1c(c(=O)n(-c3cccc(Cl)c3)c(=O)n1C)n2C | no
* CC(C)(C)n1cnc2cc(NCc3ccccc3Cl)ccc21 | yes
* O=C(NN1C(=O)/C(=C/c2ccc(O)c(O)c2)SC1=S)c1ccccc1 | yes
* Cc1ccc(NC(=O)CN(C)C(=O)COC(=O)C2=COCCO2)cc1 | no
* S=C(Nc1ccccc1)Nc1ccccn1 | no
* Cc1cccc(N=C2NC(=O)/C(=C/C=C/c3ccco3)S2)c1C | yes
* CSc1nc(N2CCOCC2)c2c3c(sc2n1)CCCC3 | no

###

Assay: qHTS Assay for Lipid Storage Modulators (AID 1519)
Conditions: Drosophila S3 cells, BODIPY lipid droplet/cell ratio, laser cytometry; measured here: cell count channel max response; cells loaded with oleic acid
Results filed as inconclusive are left out.
# max response annotations
property: max response (%)

* CCN(CCCCOC(=O)c1ccc(OC)c(OC)c1)[C@@H](C)Cc1ccc(OC)cc1 | -7.41
* O=C(/C=C/C(=O)Oc1ccccc1C(=O)O)Oc1ccccc1C(=O)O | 4.07
* NCC1O[C@@H](O[C@@H]2C(O)[C@H](O[C@H]3OC(CO)C(O)C(N)C3O)[C@@H](N)C[C@H]2N)C(N)C(O)C1O (some centres not stated) | 20.8
* c1ccc(CNc2ncnc3nc[nH]c23)cc1 | -13.8
* CC1(C)C2(Cl)C(Cl)C(Cl)C(Cl)(C(Cl)Cl)C1(Cl)C2Cl (configuration not stated) | 3.76
* CC1=C(CCC(=O)O)c2cc3nc(cc4[nH]c(cc5[nH]c(cc1n2)c(C)c5C(C)O)c(C)c4C(C)O)C(C)=C3CCC(=O)O (configuration not stated) | 12.6
* COC1C=CC23c4cc5c(cc4CN(CC2O)C3C1)OCO5 (configuration not stated) | 30.3
* COC1(C)CCC2OC2(C)CCC2C1CC2(C)C (configuration not stated) | 6.3
* COc1ccc(C2CC(=O)c3c(O)cc(OC4OC(COC5OC(C)C(O)C(O)C5O)C(O)C(O)C4O)cc3O2)cc1O (configuration not stated) | -19
* CC(=O)N[C@@H](Cc1c[nH]c2ccccc12)C(=O)O | 17.1
* CCOC(=O)C(Cc1ccc(O)cc1)NC(C)=O (configuration not stated) | 6.37
* CC(=O)OC1CC2C(C)(C)C(=O)[C@@H]3OC3[C@@]2(C)C2CC[C@]3(C)C(=CC(=O)OC3c3ccoc3)[C@]12C (some centres not stated) | 18.2
